target: Calmodulin-1 (Homo sapiens) (UniProt P0DP23); assay: calcium-bound CALM1 binders on microarrays, profiling panel, artefact control for SMM control-protein annotation, biochemical, small-molecule microarray, Cy5-labelled CALM1, plus calcium (AID 1112); details: Cy5-CALM1 binding fluorescence, higher = more signal;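 also: score merges spot fluorescence with signal to noise from triplicate slides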
Binary classification by composite z-score, with 0.2 as an inclusive lower bound for Met; all other cases are Not met.

Here's what some known entries look like.
INSERT INTO measurements (compound, label_value) VALUES
  ('O=C1O[C@@H](c2ccccc2)[C@@H](c2ccccc2)N2[C@@H](c3ccccc3OCCO)[C@]3(C(=O)Nc4ccc(C#CCCO)cc43)[C@@H](C(=O)Nc3nc4ccccc4s3)[C@H]12', 'Met'),
  ('CCOC(=O)C1=CC[C@@H](c2ccccc2C(F)(F)F)N(S(=O)(=O)c2ccc(C)cc2)C1', 'Met'),
  ('COc1cc2c(cc1OC)CN(C(=O)[C@H]1[C@@H]3C(=O)O[C@@H](c4ccccc4)[C@@H](c4ccccc4)N3[C@@H](c3ccc(OCCO)cc3)[C@]13C(=O)Nc1ccc(C#CCCO)cc13)CC2', 'Met'),
  ('CCCC=C(CCC)[C@@H](NP(=O)(c1ccccc1)c1ccccc1)c1ccc(C(F)(F)F)cc1', 'Not met'),
  ('O=C(O)[C@H]1C[C@H]2C(=O)N3CCC[C@H]3C(=O)N2[C@H]1c1cccc(OCCO)c1', 'Met'),
  ('COC(=O)Cn1c(C(=O)N2CCCC2)cc2c1C[C@H]1CN(C(=O)c3ccccc3)[C@@](Cc3ccc(F)cc3)(C(=O)OC)[C@@H]21', 'Not met');

Query :: composite z-score >= 0.2 for NCCCCCCNC(=O)[C@H]1C[C@H]2C(=O)N[C@@H](Cc3ccccc3)C(=O)N2[C@H]1c1ccc(O)cc1 ?
Result :: Met

Query :: composite z-score >= 0.2 for COCCOC(=O)N1C(=O)[C@@]2(c3cc(C#Cc4ccc(OC)cc4)ccc31)[C@H](C(=O)NC[C@H](O)c1ccccc1)[C@H]1C(=O)O[C@H](c3ccccc3)[C@H](c3ccccc3)N1[C@@H]2c1ccc(O)cc1 ?
Result :: Not met

Query :: composite z-score >= 0.2 for Cc1c(NC(=O)/C(C#N)=C/C=C/c2ccccc2[N+](=O)[O-])c(=O)n(-c2ccccc2)n1C ?
Result :: Not met

Query :: composite z-score >= 0.2 for COc1ccc([Si](C)(C)[C@@H]2[C@@H](CCn3cc([C@H](O)c4ccccc4)nn3)O[C@]3(C(=O)N(Cc4ccc(N5CCOC5=O)cc4)c4ccccc43)[C@H]2C)cc1 ?
Result :: Not met

Query :: composite z-score >= 0.2 for O=C1OCC=C[C@H]2OC34C=CCN(c5ccc(Cl)cc5)C(=O)[C@H]3N(CCCCCO)C(=O)[C@@H]4[C@@H]12 (stereo partly drawn) ?
Result :: Not met

Query :: composite z-score >= 0.2 for COc1cc(OC)c(C(O)C2C=CC3C(=O)N(c4ccccc4)C(=O)C3N2Nc2ccc(C#N)cc2)cc1Br (stereo not drawn) ?
Result :: Met

Query :: composite z-score >= 0.2 for C=C[C@H](COC(C)=O)NS(=O)(=O)c1ccc(Br)cc1 ?
Result :: Not met
